Assay: Inhibition of Staphylococcus aureus topoisomerase 4 assessed as supercoiling of relaxed pBR322 plasmid after 45 mins by ethidium bromide staining based agarose gel electrophoresis
reported-property: pIC50
Please express pIC50 as -log10 of the molar concentration.

Any idea what pIC50 was measured for CO[C@@H]1[C@@H](OC(N)=O)[C@@H](O)[C@H](Oc2ccc3c(O)c(NC(=O)c4ccc(O)c(CC=C(C)C)c4)c(=O)oc3c2C)OC1(C)C [NOVOBIOCIN] ?
4.70

* * *

Exercise: state measured Activity for each of the compounds provided.
Test system: Escherichia coli
Assay: Inhibition of Escherichia coli topoisomerase 4 assessed as relaxation of supercoiled pNO1 plasmid by measuring residual activity at 100 uM after 30 mins by SybrGOLD staining based fluorescence assay

# input compound: `COC(=O)CC(=O)Nc1ccc(NC(=O)c2cc(Br)c(Br)[nH]2)cc1` ; wanted: its Activity
96%

Field request: Activity | item: `COC(=O)[C@H]1CCCN1C(=O)c1ccc(NC(=O)c2cc(Br)c(Br)[nH]2)cc1`
97%

Recorded Activity of `O=C(Nc1ccc(C(=O)N2CCC[C@@H]2C(=O)O)cc1)c1cc(Br)c(Br)[nH]1` , please.
106%

Need Activity, item `O=C(O)C(=O)Nc1ccc(NC(=O)c2cc(Br)c(Br)[nH]2)cc1`
81%

Give its Activity value. Item: `O=C(O)CC(=O)Nc1ccc(NC(=O)c2cc(Br)c(Br)[nH]2)cc1`
70%

# query: Activity of entry `O=C(Nc1ccc(C(=O)N2CCC[C@H]2C(=O)O)cc1)c1cc(Br)c(Br)[nH]1`
108%

Suppose we examine the compound `COC(=O)[C@@H]1CCCN1C(=O)c1ccc(NC(=O)c2cc(Br)c(Br)[nH]2)cc1` ; what Activity value has been reported?
74%

Which Activity value belongs to `CC(=O)c1ccc(NC(=O)c2cc(Br)c(Br)[nH]2)cc1` ?
115%

* * *

Tested on: Staphylococcus aureus
Assay: Inhibition of Staphylococcus aureus topoisomerase 4 assessed as relaxation of supercoiled pNO1 plasmid by measuring residual activity at 100 uM after 30 mins by SybrGOLD staining based fluorescence assay
For each entry below, report its Activity value.
Write down the numeric answer in % and omit the unit.

Quick one: Activity of `COC(=O)CC(=O)Nc1ccc(NC(=O)c2cc(Br)c(Br)[nH]2)cc1` ?
104

// returns reported Activity for input `COC(=O)[C@@H]1CCCN1C(=O)c1ccc(NC(=O)c2cc(Br)c(Br)[nH]2)cc1`
100

Param item = `O=C(O)CC(=O)Nc1ccc(NC(=O)c2cc(Br)c(Br)[nH]2)cc1` ; retrieve measured Activity.
95

So what does the record say about Activity for `COC(=O)[C@H]1CCCN1C(=O)c1ccc(NC(=O)c2cc(Br)c(Br)[nH]2)cc1` ?
105

For the compound `O=C(Nc1ccc(C(=O)N2CCC[C@H]2C(=O)O)cc1)c1cc(Br)c(Br)[nH]1` , what Activity is on record?
116

State the recorded Activity for this entry: `O=C(O)C(=O)Nc1ccc(NC(=O)c2cc(Br)c(Br)[nH]2)cc1`
85

Suppose we examine the compound `O=C(Nc1ccc(C(=O)N2CCC[C@@H]2C(=O)O)cc1)c1cc(Br)c(Br)[nH]1` ; what Activity value has been reported?
113

Query: Activity; subject: `CC(=O)c1ccc(NC(=O)c2cc(Br)c(Br)[nH]2)cc1`
99
